Recorded values, source ChEMBL document CHEMBL1201862.

# measured-on: Type-1 angiotensin II receptor (Homo sapiens, UniProt P30556)
# Sequence (P30556 whole entry): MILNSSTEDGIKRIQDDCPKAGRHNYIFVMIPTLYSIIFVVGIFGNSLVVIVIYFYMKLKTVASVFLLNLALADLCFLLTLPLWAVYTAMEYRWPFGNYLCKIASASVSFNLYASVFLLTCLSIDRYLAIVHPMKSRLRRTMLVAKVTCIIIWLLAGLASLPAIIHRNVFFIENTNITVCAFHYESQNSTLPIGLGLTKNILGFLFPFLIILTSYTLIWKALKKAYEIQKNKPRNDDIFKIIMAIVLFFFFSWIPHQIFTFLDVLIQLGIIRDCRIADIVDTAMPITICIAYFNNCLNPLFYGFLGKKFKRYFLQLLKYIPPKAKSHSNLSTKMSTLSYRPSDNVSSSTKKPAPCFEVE
# method-notes: AT1 receptor antagonists, dose response, selectivity assay for APJ receptor antagonist project, cell-based, uHTS hits (AID 463214);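 also: antagonist potency against angiotensin II stimulated AT1 response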
# Type: functional
Calls of active or inactive are those of the source.
Reported IC50 is given for each of the following compounds.

>  <structure-smiles-string>
CC1=NN(c2ccc(C)cc2)C(=O)/C1=C/c1ccc(-c2cc([N+](=O)[O-])ccc2O)o1

>  <IC50>
> 40 µM (not active)

$$$$
>  <structure-smiles-string>
N=C1S/C(=C\c2ccco2)C(=O)N1c1nccs1

>  <IC50>
7.86 µM (active)

$$$$
>  <structure-smiles-string>
COc1cccc(/N=C2\NC(=O)/C(=C/c3cc([N+](=O)[O-])ccc3O)S2)c1

>  <IC50>
> 40 µM (not active)

$$$$
>  <structure-smiles-string>
O=C(COC(=O)c1ccco1)c1ccc(S(=O)(=O)N2CCCCC2)cc1

>  <IC50>
16.5 µM (active)

$$$$
>  <structure-smiles-string>
C/C(=N\NC(=S)Nc1cccc(C)c1)c1ccccc1

>  <IC50>
> 40 µM (not active)

$$$$

[in] // lookup IC50 for Cc1nn(CCC(=O)NN=C(S)Nc2ccc(F)cc2)c(C)c1Br
[out] > 40 µM (not active)

[in] // lookup IC50 for Cc1cccc2c1N(CCCOc1ccccc1)C(=O)C2=O
[out] > 40 µM (not active)

###

Reported EC50 is given for each of the following molecules.
# measured-on: Zinc finger protein mex-5 (Caenorhabditis elegans)
# Sequence (Q9XUB2 whole entry): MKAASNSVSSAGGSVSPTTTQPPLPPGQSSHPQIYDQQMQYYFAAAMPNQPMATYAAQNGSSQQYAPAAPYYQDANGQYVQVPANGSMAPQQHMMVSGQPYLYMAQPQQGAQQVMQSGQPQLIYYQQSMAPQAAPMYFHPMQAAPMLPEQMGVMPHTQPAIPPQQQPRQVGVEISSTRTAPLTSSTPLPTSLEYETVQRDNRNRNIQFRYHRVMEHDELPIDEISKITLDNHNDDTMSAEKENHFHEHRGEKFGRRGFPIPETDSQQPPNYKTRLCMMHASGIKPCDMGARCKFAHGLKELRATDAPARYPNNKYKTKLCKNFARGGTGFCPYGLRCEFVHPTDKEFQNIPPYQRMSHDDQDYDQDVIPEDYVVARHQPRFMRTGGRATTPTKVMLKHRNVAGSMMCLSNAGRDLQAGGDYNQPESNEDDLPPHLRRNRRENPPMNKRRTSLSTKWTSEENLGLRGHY
# method-notes: MEX-5/TCR-2 RNA interaction inhibitors, dose response, biochemical, C. elegans, fluorescence polarization (AID 1960)
Active and inactive are the calls of the source.

>  <molecule>
CCN=C(S)N(C)CCc1cc2c(c(OC)c1C=C1C(=O)N(C)C(=O)N(C)C1=O)OCO2

>  <EC50>
> 300 µM (not active)

$$$$
>  <molecule>
COc1ccc2nc3cc(Cl)ccc3c(Nc3cc(CN4CCCC4)c(O)c(CN4CCCC4)c3)c2n1

>  <EC50>
22 µM (active)

$$$$
>  <molecule>
CCC(=O)OC1(C)C(=O)C=C2C=C(c3ccsc3)OC=C2C1=O (stereo not given)

>  <EC50>
32.5 µM (active)

$$$$
>  <molecule>
O=C(N/N=C/c1cccnc1)c1cc(O)c(O)c(O)c1

>  <EC50>
4.24 µM (active)

$$$$

Please find the next molecule below.
[in] // lookup EC50 for CC1(C)CC(=O)C2=C(C1)OC(/N=C/N1CCCC1)=C(C#N)C2c1ccccc1 (stereo not given)
[out] > 300 µM (not active)

###

Reported EC50 is given for each of the following molecules.
# measured-on: Protein RecA (Mycobacterium tuberculosis, UniProt P9WHJ3)
# method-notes: Fluorescence Cell-Free Homogeneous Dose Retest to Identify Inhibitors of RecA-Intein Splicing Activity. [Related pubchem assays (depositor defined):AID2097, AID2223, AID489010, AID492950]
# Format: functional
Activity calls are given as the source filed them.

[in] // lookup EC50 for COc1ccc(S(=O)(=O)Nc2cc(SCC(=O)O)c(O)c3ccccc23)cc1
[out] 234 nM (active)

[in] // lookup EC50 for O=C(C1=C(c2ccccc2)C(=O)c2ccccc2C1=O)c1ccccc1
[out] 862 nM (active)

[in] // lookup EC50 for CC1CC(=O)c2c(cc3c(-c4c(O)cc(O)c5c(O)c6c(cc45)OC(C)CC6=O)c(O)cc(O)c3c2O)O1 (stereo unspecified)
[out] 1570 nM (active)

###

# measured-on: Dual specificity tyrosine-phosphorylation-regulated kinase 1A (Rattus norvegicus)
# Format: biochemical, Homo sapiens
Active and inactive are the calls of the source.
Reported AC50 is given for each of the following compounds.

Look over these answered cases.
>  <compound>
CC1CCC(C(C)C)C2=C1C(C#N)(C#N)C(C#N)(C#N)C(c1ccccc1)N2 (stereo not given)

>  <measured-on>
Dual specificity tyrosine-phosphorylation-regulated kinase 1A (Rattus norvegicus)

>  <assay-result>
5.69 µM (active)

$$$$
>  <compound>
O=c1c(O[C@@H]2O[C@H](CO)C(O)C2O)c(-c2ccc(O)c(O)c2)oc2cc(O)cc(O)c12 (stereo not given in full)

>  <measured-on>
Dual specificity tyrosine-phosphorylation-regulated kinase 1A (Rattus norvegicus)

>  <assay-result>
18 µM (active)

$$$$

[in] // lookup AC50 for CCc1ccc2nc(NC(=O)C3CSC4(C)CCC(=O)N34)sc2c1 (stereo not given)
[out] 7.62 µM (active)

[in] // lookup AC50 for O=C1C(Nc2ccc(O)cc2)=C/C(=N/S(=O)(=O)c2cccs2)c2ccccc21
[out] 0.883 µM (active)

[in] // lookup AC50 for O=C(Nc1ccc2ccccc2n1)c1ccccc1
[out] 77.5 µM (active)

###

# measured-on: Replicative DNA helicase DnaB (Mycobacterium tuberculosis, UniProt P9WMR3)
# Sequence (P9WMR3 1-399, added parts left off): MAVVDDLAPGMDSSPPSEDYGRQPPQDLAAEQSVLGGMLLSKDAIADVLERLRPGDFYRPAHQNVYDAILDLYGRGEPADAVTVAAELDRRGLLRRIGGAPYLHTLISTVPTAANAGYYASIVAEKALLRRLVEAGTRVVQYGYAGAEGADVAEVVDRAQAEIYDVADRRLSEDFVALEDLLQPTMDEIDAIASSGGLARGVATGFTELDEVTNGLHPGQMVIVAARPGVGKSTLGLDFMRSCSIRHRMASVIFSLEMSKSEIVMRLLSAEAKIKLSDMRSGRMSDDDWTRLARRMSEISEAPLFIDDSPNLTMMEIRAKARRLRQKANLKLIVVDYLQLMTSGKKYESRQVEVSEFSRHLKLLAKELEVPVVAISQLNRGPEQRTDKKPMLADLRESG
# method-notes: DnaB intein splicing inhibitors, dose response, biochemical, cell-free fluorescence (AID 449749)
# Format: functional
Active and inactive are the calls of the source.
measured-attribute: AC50

[in] // lookup AC50 for COc1ccc(NC(=O)/C(Cl)=C(/Cl)S(=O)(=O)Cc2ccc(C)cc2)cn1
[out] 4.27 µM (active)

###

# measured-on: UniProt P26358
# Sequence (P26358 whole entry): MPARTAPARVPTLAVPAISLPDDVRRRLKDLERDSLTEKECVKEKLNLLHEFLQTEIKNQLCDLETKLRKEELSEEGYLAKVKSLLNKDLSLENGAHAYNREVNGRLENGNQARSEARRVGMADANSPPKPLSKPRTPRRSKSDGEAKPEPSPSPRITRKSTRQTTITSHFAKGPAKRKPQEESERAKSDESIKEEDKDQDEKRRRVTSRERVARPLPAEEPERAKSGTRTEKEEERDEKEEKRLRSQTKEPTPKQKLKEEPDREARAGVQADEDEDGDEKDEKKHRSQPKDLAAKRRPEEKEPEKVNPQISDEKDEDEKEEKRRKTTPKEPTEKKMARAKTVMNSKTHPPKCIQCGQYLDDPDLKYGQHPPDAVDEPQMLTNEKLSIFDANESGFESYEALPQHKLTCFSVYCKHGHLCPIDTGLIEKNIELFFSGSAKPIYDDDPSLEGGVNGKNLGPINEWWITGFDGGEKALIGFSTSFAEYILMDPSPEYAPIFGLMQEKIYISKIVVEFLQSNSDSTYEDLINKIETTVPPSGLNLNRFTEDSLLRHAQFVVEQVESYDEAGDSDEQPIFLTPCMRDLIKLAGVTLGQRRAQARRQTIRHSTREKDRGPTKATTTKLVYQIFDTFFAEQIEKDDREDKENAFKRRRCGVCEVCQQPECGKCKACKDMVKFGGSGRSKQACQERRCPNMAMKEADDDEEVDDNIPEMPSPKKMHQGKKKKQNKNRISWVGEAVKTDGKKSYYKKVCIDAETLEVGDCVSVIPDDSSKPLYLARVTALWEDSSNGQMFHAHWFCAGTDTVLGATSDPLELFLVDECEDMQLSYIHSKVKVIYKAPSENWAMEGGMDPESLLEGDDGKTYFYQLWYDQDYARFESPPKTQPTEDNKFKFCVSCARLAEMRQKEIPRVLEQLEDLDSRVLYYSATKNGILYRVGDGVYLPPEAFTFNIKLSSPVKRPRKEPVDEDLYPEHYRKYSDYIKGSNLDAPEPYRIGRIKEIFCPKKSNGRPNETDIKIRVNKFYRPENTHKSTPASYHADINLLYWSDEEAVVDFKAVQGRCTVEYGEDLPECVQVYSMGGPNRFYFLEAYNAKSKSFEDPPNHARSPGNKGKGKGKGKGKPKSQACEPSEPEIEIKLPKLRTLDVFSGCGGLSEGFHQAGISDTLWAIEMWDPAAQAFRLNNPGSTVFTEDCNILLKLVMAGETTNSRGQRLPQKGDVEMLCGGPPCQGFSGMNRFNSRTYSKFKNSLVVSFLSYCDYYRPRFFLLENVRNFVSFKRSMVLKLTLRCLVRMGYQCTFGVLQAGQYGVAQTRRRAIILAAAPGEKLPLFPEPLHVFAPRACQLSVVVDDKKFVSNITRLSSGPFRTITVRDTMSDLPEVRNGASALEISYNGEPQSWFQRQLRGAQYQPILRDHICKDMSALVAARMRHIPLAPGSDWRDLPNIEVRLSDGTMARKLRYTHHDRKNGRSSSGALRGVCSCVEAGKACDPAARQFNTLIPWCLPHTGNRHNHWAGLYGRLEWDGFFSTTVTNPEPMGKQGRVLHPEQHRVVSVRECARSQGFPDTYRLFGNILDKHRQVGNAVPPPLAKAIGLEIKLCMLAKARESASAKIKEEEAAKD
# method-notes: DNMT1 methyltransferase inhibitors, confirmation, biochemical, fluorescent molecular beacon (AID 602386)
# Type: functional
Activity calls are given as the source filed them.
Reported IC50 is given for each of the following compounds.

Look over these answered cases.
>  <structure-smiles-string>
CCc1nnc(NS(=O)(=O)c2ccc(NC(=S)NC(=O)/C=C/c3ccc(C(C)C)cc3)cc2)s1

>  <IC50>
6.16 µM (active)

$$$$
>  <structure-smiles-string>
c1ccc2c(c1)C1=NCCN1c1ccccc1-2

>  <IC50>
9.24 µM (active)

$$$$
>  <structure-smiles-string>
O=C1COc2ccc(C(=O)COC(=O)/C=C/c3ccc(Br)o3)cc2N1

>  <IC50>
12.2 µM (active)

$$$$

[in] // lookup IC50 for CCN(CC)CCC(=O)Nc1cccc2c1C(=O)c1ccccc1C2=O
[out] 6.86 µM (active)

###

# measured-on: Cytochrome P450 2D6 (Homo sapiens)
# Sequence (P10635 whole entry): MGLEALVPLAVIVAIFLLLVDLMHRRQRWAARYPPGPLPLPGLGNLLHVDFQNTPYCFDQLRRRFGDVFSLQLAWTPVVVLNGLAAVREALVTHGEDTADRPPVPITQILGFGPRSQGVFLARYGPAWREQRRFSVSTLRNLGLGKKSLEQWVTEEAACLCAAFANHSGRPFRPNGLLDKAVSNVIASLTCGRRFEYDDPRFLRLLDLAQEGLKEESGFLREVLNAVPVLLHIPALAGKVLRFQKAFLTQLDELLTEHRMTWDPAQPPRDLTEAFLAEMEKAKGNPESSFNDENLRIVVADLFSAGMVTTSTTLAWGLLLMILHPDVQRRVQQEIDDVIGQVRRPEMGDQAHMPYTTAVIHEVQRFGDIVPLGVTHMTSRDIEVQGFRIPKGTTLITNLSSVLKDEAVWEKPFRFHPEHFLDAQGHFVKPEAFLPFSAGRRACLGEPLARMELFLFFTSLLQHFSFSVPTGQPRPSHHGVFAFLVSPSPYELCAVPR
Reported AC50 is given for each of the following compounds.

Look over these answered cases.
>  <compound>
CCCCOC(=O)NS(=O)(=O)c1sc(CC(C)C)cc1-c1ccc(Cn2c(CC)nc3c(C)cc(C)nc32)cc1

>  <measured-on>
Cytochrome P450 2D6 (Homo sapiens)

>  <AC50>
15.8 µM (inconclusive)

$$$$
>  <compound>
Cn1cccc1/C=N/NC(=O)c1sc2ccccc2c1Cl

>  <measured-on>
Cytochrome P450 2D6 (Homo sapiens)

>  <AC50>
10 µM (inconclusive)

$$$$
>  <compound>
O=C(CSCC(=O)OCn1nnc2ccccc2c1=O)Nc1ccc(Cl)cc1

>  <measured-on>
Cytochrome P450 2D6 (Homo sapiens);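 also: CYP2D6 member of a cytochrome P450 panel assay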

>  <AC50>
25.1 µM (inconclusive)

$$$$

Please find the next compound below.
[in] // lookup AC50 for COCCCNC(=O)c1ccc2c(=O)n(CC3CCCO3)c(=S)[nH]c2c1 (centres undefined)
[out] 0.178 µM (inconclusive)
